test: in vivo; conditions: nude, mouse, plasma, po, 150 mg/kg
READOUT: AUC
Write the numeric value and append its unit.

Data point: `O=c1cc(-c2ccnc(NC3CCOCC3)n2)ccn1[C@H](CO)c1ccc(Cl)c(F)c1` ; AUC = 175 µM·h

----------
experiment: in vivo; settings: dog, po, 5 mg/kg
READOUT: half-life (h)
Write down the numeric answer in h and omit the unit.

Data point: `O=c1cc(-c2ccnc(NC3CCOCC3)n2)ccn1[C@H](CO)c1ccc(Cl)c(F)c1` ; half-life = 1.55

----------
test: in vivo; details: CD-1, mouse, iv, 1 mg/kg
Measured clearance values are reported for all entries that follow.
Write the numeric value and append its unit.

Field: example entries. Status: answers known.
1) O=c1cc(-c2ccnc(NC3CCOCC3)n2)ccn1[C@H](CO)c1cccc(Cl)c1; 114 mL/min/kg
2) O=c1cc(-c2ccnc(NC3CCOCC3)n2)ccn1[C@H](CO)c1ccc(F)c(Cl)c1; 63 mL/min/kg
3) O=c1cc(-c2ccnc(NC3CCOCC3)n2)ccn1[C@H](CO)c1ccc(Cl)c(F)c1; 33 mL/min/kg

Data point: `O=c1cc(-c2ccnc(NC3CCOCC3)n2)ccn1[C@H](CO)c1cccc(F)c1` ; clearance = 39 mL/min/kg

The values you see were collected from ChEMBL document CHEMBL3407455.
